tested on: Staphylococcus aureus; test: Antibacterial activity against Staphylococcus aureus ATCC 25923 after 16 hrs by microtiter broth dilution method; format: functional; conditions: ATCC 25923, 16 h
reported.property: MIC (µM)

CN[C@H](CC(C)C)C(=O)N[C@H]1C(=O)N[C@@H](CC(N)=O)C(=O)N[C@H]2C(=O)N[C@H]3C(=O)N[C@H](C(=O)N[C@H](C(=O)O)c4cc(O)cc(O)c4-c4cc3ccc4O)[C@H](O)c3ccc(c(Cl)c3)Oc3cc2cc(c3O[C@@H]2O[C@H](CO)[C@@H](O)[C@H](O)[C@H]2O[C@H]2C[C@](C)(N)[C@H](O)[C@H](C)O2)Oc2ccc(cc2Cl)[C@H]1O ... 2.4
CCCc1cc(/C=C/C(=O)c2ccco2)cc(/C=N/c2nc(C(=O)OCC)cs2)c1O ... 51.2
COc1ccc(-c2csc(/N=C/c3cc(/C=C/C(=O)c4ccc(C)cc4)cc(C(C)(C)C)c3O)n2)cc1OC ... 5.8
CCOC(=O)c1csc(/N=C/c2cc(/C=C/C(=O)c3ccco3)cc(C(C)(C)C)c2O)n1 ... 13.8
COc1ccc(-c2csc(/N=C/c3cc(/C=C/C(=O)c4ccc(C)cc4)cc(C(C)(C)C)c3O)n2)cc1 ... 12.2
COc1ccc(-c2csc(/N=C/c3cc(/C=C/C(=O)c4cccs4)cc(C(C)(C)C)c3O)n2)cc1OC ... 23.5
